# Subject of test: hTA1 S107C (Homo sapiens, UniProt Q96RJ0, S107C)
# Construct: expressed in transfected cells; host or cells: HEK293T
# Sequence (Q96RJ0 whole entry S107C): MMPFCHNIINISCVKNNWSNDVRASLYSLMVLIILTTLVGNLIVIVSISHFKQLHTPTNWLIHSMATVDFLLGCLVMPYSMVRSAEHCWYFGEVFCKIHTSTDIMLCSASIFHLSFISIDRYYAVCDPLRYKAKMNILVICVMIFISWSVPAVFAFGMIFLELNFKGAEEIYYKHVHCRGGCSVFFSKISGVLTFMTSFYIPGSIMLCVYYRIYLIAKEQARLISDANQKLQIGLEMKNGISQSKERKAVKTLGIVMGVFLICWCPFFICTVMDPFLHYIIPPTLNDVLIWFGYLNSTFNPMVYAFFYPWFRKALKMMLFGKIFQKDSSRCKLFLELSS
# Method description: GloSensor cAMP accumulation assay, S107C mutant;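 note: cells transiently co-expressing receptor and GloSensor biosensor, luminescence read after 30 min agonist exposure at room temperature, concentration-response fitted by nonlinear regression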
# Assay type: cell-based
# Condition context: S107C mutant minus WT average
Examples of molecules with documented ΔEmax values (each mutant value - WT average) follow.

Some solved cases for reference:
CCc1[nH]nc(C(=O)Nc2ccc([C@H]3CNCCO3)cc2)c1C | 1.2358
NCCc1ccc(Oc2ccc(O)cc2)c(I)c1 | 9.303
NCCc1ccccc1 | 0
NCCc1ccc(O)cc1 | 8.654
Cc1c(F)cccc1[C@H]1COC(N)=N1 | 21.9095

Name the reported ΔEmax values (each mutant value - WT average) value associated with the molecule CCC(CC1COC(N)=N1)c1ccccc1 (stereo not drawn)
-34.2322
